Source of measurements: patent US8815857B2

Biological target: Recombinant human soluble guanylate cyclase (sGC), alpha 1 / beta 1 subunits, heme-free (Homo sapiens, UniProt Q02108+Q02153)
Construct: histidine tag (C); made in house; host or cells: Sf9 insect cells (baculovirus coinfection)
Sequence (Q02108 whole entry partner): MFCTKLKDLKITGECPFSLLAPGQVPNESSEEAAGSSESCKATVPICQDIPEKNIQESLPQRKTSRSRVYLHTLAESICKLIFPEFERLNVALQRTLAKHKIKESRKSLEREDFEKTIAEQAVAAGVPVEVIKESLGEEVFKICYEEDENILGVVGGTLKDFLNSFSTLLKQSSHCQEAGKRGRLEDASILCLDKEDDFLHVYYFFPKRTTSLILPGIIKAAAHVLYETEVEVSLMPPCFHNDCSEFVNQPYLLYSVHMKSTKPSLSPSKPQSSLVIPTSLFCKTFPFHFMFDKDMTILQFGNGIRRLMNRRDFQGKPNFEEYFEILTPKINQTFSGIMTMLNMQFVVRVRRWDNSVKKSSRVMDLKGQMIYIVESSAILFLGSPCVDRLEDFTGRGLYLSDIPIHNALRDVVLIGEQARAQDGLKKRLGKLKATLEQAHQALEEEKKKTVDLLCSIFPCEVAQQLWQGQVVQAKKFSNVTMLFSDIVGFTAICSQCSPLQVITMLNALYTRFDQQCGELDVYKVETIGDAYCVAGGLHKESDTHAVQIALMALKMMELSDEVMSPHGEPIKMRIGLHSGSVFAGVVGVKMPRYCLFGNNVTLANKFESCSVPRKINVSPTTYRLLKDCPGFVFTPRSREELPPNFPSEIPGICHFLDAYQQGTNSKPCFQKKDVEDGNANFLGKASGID
Sequence (Q02153 whole entry): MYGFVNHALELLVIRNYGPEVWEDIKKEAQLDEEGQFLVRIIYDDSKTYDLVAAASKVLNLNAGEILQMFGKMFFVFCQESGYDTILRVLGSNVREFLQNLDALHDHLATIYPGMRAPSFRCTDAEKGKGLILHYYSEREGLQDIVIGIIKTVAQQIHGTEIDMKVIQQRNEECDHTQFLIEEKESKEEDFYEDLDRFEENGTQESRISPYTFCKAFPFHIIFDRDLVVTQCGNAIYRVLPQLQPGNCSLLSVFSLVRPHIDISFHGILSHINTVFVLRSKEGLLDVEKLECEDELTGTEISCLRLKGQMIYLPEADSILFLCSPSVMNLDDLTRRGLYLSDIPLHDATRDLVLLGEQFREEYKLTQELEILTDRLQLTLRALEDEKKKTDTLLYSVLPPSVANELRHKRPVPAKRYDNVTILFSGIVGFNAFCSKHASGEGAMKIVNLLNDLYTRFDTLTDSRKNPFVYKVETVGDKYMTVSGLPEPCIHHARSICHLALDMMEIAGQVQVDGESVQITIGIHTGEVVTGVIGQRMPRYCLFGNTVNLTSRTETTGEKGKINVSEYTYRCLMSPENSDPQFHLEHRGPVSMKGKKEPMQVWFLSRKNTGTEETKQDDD
Assay: Molecular assay: cGMP formation by heme-free recombinant sGC (CisBio cGMP detection kit)
Format: biochemical
Conditions: 300 pM heme-free sGC, 37° C., 60 min, cGMP readout; read-out: EC50 nM, Activity of Compounds in Molecular Assay
# EC50 values compiled below
The reply should be a number in nM, with the unit left off.

Example compounds with recorded EC50:
> print(dat)
                                   compound  value.reported
1  Cc1cc(C(=O)N2CCCCC2)ccc1COc1c(C#N)cccc1-c1csc(N2CCC(C(=O)O)CC2)n1             450
2  Cc1cc(C(=O)N2CCCCC2)ccc1COc1ccc(F)cc1-c1csc(N2C3CCC2CC(C(=O)O)C3)n1 (stereo not shown)              59
3  CNC(=O)C1CCN(Cc2ccc(COc3c(C)cccc3-c3csc(N4CCC(C(=O)O)CC4)n3)c(C)c2)CC1            2700

Now turn to the next compound.
Q: Find the recorded EC50 belonging to Cc1cc(C(=O)N2CCCCC2)ccc1COc1ccccc1-c1csc(N2C3CCC2CC(C(=O)O)C3)n1 (stereo not shown) and report it.
Ans: 43
